test: Cmax in C57BL/6 mouse pneumonia model at 60 mg/kg, im; format: ADME, organism-based; parameters: dose 60 mg/kg, route intramuscular; conditions: in vivo
Measured endpoint: Cmax (µg/mL)
Answers are plain numbers, in µg/mL.

Provide one value: measured Cmax of CC1(C)[C@H](C(=O)O)N2C(=O)C[C@H]2S1(=O)=O [SULBACTAM]
89.5

---

experiment: AUC in New Zealand rabbit meningitis model at 120 mg/kg, im; type: ADME, organism-based, Oryctolagus cuniculus; design: dose 120 mg/kg, route intramuscular; settings: in vivo
Measured endpoint: AUC (ng·h/mL)
One number for each entry, in ng·h/mL.

Name the recorded AUC of the molecule listed here: C[C@@H](O)[C@H]1C(=O)N2C(C(=O)O)=C(SCCN=CN)C[C@H]12 [IMIPENEM ANHYDROUS]
50400
